- study target: recombinant human IL-21 (rhIL-21) (human, UniProt Q9HBE4 30-162, limits assumed)
- Sequence (Q9HBE4 30-162 limits assumed): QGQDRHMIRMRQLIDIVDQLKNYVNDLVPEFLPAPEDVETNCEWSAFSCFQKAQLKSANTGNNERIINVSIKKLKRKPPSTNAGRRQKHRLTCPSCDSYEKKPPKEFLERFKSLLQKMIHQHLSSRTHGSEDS
- assay procedure: cell-based or functional assay
parameter: % pSTAT3+ Jurkat cells, 0.1 nM rhIL-21 + 10 nM antibody (%)

| binder | reported measurement |
| --- | --- |
| FYP014 (antibody, human IgG1, V domains shown, human IgG1; also called EP3103813A1 clone 366.328.10.63) VH: EVQLVESGGGLVKPGGSLRLSCAASGFIFSSYSMNWVRQAPGKGLEWVSSITSGSYYIHYADSVKGRFTISRDNAKNSLYLQMNSLRAEDTAVYYCVRERGWGYYGMDVWGQGTTVTVSS VL: AIQLTQSPSSLSASVGDRVTITCRASQDIDSALAWYQQKPGKAPKILIHDASSLESGVPSRFSGSGSGTDFTLTISSLQPEDFATYYCQQFNSYPYTFGQGTKLEIK | 3.83 |
| ZAP122 (antibody, human IgG1, V domains shown) VH: QVQLQESGPGLVKPSETLSLTCTVSGGSISSDFWGWIRQPPGKGLEWIGYISSRGSTNYNPSLKRRVTISVDTSRNQFSLKLSSVTAADTAVYYCARSAGVTDFDFWGQGTLVTVSS VL: DIQMTQSPSSVSASVGDRVTITCRASQGISSWLAWYQHKPGKAPKLLIYVASSLQSGVPSRFSGSGSGTDFTLTISSLQPEDFATYYCQQANSFPLTFGGGTKVEIK | 6.63 |
| LKK631 (antibody, human IgG1, V domains shown) VH: EVQLQQFGAEVVKPGASVKMSCKASGYTFTDYNMNWVKQSHEKSLEWIGDIHPKFHSTNYNQKFKGKATLTIDTSSSTAYMELRNLTSEDTAVYYCARVGNYVYFVMDYWGQGTSVTVSS VL: SIVMTQTPKFLLVSAGDRVTITCKASQSVSNDVAWYQQKPGQSPKLLIYYASNRYTGVPDRFSGSGYGTDFTFTISTVQAEDLAVYFCQQDYTSPWTFGGGTKLEIK | 41.1 |
| MIZ926 (antibody, human IgG1, V domains shown) VH: EVQLVESGGGSVKPGGSLKLSCAASGLTFSHYYMYWVRQTPEKRLEWVAIISDGGDYTHYSDSVKGRFTISRDNAKNNLYLQMSSLQSEDTAMYYCAGDYGYGYEGWFAYWGQGTLVTVST VL: DIVMTQSQKFMSTSVGDRVSVTCKASQNVDTYVAWYQQKPGQSPKALIYSTSYRYSGVPDRFTGSGSGTDFTLTISNVQSEDLAEYFCQQYNSYPWTFGGGTKLEIK | 57.5 |
